Test system: CCRF-CEM leukemia
MEASUREMENT PROTOCOL: NCI tumour cell line growth inhibition, 48 h
Readings of TGI for the listed molecules

INPUT: Please give the documented TGI of O=c1c2ccccc2c(=O)n2n1CC=CC2
OUTPUT: > 100 µM

INPUT: Note down TGI recorded for N#CC(=C1CCN(CCCC(=O)c2ccc(F)cc2)CC1)c1ccccc1
OUTPUT: > 100 µM

INPUT: Given the molecule Cc1ccccc1C(=O)N/N=C/c1ccc(Sc2nccn2C)c([N+](=O)[O-])c1 , write its reported TGI.
OUTPUT: > 100 µM

Others:
INPUT: Supply measured TGI of O=C1NCc2ccccc2S(=O)(=O)n2cccc21 in your reply.
OUTPUT: > 100 µM

INPUT: Identify TGI associated with the molecule NCCSC(c1ccccc1)c1ccccc1
OUTPUT: > 100 µM

INPUT: Report TGI, nothing else, for this molecule: Nc1nc(SCCc2ccccc2)nc2nc3c(c(-c4ccccc4)c12)CCCC3
OUTPUT: > 100 µM

INPUT: Report measured TGI; entry is CCOC(=O)C(NC(=O)c1ccco1)(Nc1nc2ccc(OCC)cc2s1)C(F)(F)F (centres undefined)
OUTPUT: > 100 µM

INPUT: Read the entry CC[C@]1(Cc2ccc(OC)c(OC)c2)C=[N+]([O-])O[C@H](OC2CCCC2(c2ccccc2)c2ccccc2)[C@@H]1OC(C)=O (some centres undefined) and write its reported TGI.
OUTPUT: > 100 µM

INPUT: Recall and state the measured TGI for CN[C@H](C#Cc1c(F)ccc2c1/C(=C/c1[nH]ccc1OC)C(=O)N2)CO .
OUTPUT: 1.83 µM

INPUT: For CCn1c(-c2ccc(N=NNc3ccc(-c4n[nH]c(=S)n4CC)cc3)cc2)n[nH]c1=S , write its TGI.
OUTPUT: 61.6 µM
